These data points were gathered from patent US7632829B2.

Biological target: human chemokine receptor 2 isoform B (Homo sapiens, UniProt P41597)
Sequence (P41597 1-360 isoform P41597-2): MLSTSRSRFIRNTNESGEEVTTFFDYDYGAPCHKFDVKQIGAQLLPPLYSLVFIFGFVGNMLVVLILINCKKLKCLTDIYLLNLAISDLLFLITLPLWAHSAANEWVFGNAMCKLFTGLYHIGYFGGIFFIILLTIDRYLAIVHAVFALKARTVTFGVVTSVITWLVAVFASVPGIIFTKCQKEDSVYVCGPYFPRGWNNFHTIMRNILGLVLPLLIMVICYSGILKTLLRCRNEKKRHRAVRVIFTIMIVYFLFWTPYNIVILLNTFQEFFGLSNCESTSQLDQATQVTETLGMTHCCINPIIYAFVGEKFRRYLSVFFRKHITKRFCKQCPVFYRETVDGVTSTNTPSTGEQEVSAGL
Assay: Calcium mobilization assay (FLIPR, CHOK1-CCR2B-A5 cells, 20 nM MCP-1)
Conditions: Ca mobilisation assay, CCR2, antagonist activity vs 20 nM MCP-1
pIC50: −log10 of the molar value.
Decision: pIC50 compared against 7; not below it gives true, below it gives false.

{"columns": ["Compound", "Classification"],
 "data": [
  ["O=C(/C=C/c1ccc(F)c(Cl)c1)N1CCC(=O)N(C[C@@H](O)CN2CCC3(CC3)C(O)C2)CC1 (stereo partly shown) [Example 336]", "true"],
  ["O=C(/C=C/c1ccc(Cl)c(F)c1)N1CCC(=O)N(CCCN2CCC3(CC3)C(O)C2)CC1 (stereo not shown) [Example 494]", "true"],
  ["CC1C(O)CCCN1CCCN1CCN(C(=O)C=Cc2ccc(F)c(Cl)c2)CCC1=O (mixture of isomers) [Example 208]", "false"],
  ["O=C(/C=C/c1ccc(F)c(Cl)c1)N1CCC(=O)N(CCCCN2CCN(C3CC3)CC2)CC1", "false"],
  ["COC[C@H]1CCN(CCCN2CCN(C(=O)/C=C/c3ccc(F)c(Cl)c3)CCC2=O)C[C@H]1O (racemic)", "false"]
]}

----------
Let's look at some molecules and their measured IC50.
biological target: human chemokine receptor 2 isoform B (Homo sapiens, UniProt P41597); experiment: Calcium mobilization assay (FLIPR, CHOK1-CCR2B-A5 cells, 20 nM MCP-1); settings: Ca mobilisation assay, CCR2, antagonist activity vs 20 nM MCP-1
Value Type: IC50 (nM)

{"columns": ["Molecule", "Value Type", "Reading"],
 "data": [
  ["CC1CCN(CCN2CCN(C(=O)/C=C/c3ccc(Cl)c(Cl)c3)CCC2=O)CC1 [Example 120]", "IC50", 1140],
  ["CC1CCCN(CCCN2CCN(C(=O)/C=C/c3ccc(Cl)c(Cl)c3)CCC2=O)C1 (racemic) [Example 235]", "IC50", 112],
  ["C[N+]1(CCCN2CCN(C(=O)C=Cc3ccc(Cl)c(Cl)c3)CCC2=O)CCCCC1 [Example 154]", "IC50", 373],
  ["CC1(CO)CCCN(CC(O)CN2CCN(C(=O)/C=C/c3ccc(Cl)c(Cl)c3)CCC2=O)C1 (racemic) [Example 305]", "IC50", 192]
]}

----------
Target: human chemokine receptor 2 isoform B (Homo sapiens, UniProt P41597)
Sequence (P41597 1-360 isoform P41597-2): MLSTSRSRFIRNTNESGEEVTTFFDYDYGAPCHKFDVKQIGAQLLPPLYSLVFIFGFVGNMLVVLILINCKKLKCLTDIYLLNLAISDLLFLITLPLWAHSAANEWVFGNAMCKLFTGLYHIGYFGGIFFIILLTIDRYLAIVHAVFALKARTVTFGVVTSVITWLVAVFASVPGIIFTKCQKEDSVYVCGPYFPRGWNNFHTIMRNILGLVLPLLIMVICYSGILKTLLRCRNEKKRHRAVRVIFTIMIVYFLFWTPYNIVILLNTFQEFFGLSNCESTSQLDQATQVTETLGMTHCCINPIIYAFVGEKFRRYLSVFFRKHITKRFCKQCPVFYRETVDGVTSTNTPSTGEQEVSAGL
Assay: Calcium mobilization assay (FLIPR, CHOK1-CCR2B-A5 cells, 20 nM MCP-1)
Conditions: Ca mobilisation assay, CCR2, antagonist activity vs 20 nM MCP-1
Consider the cut-off 400 nM. If the recorded IC50 is strictly smaller, the label is Condition met; if not, the label is Condition not met.

{"columns": ["Compound", "Classification"],
 "data": [
  ["COC(=O)N(C)C1CCN(CCCCN2CCN(C(=O)/C=C/c3ccc(Cl)c(Cl)c3)CCC2=O)CC1", "Condition met"],
  ["O=C(/C=C/c1ccc(Cl)c(Cl)c1)N1CCC(=O)N(CCCN2CCC(O)CC2)CC1", "Condition met"],
  ["COC(=O)C(CCCN1CCCCC1)N1CCN(C(=O)/C=C/c2ccc(Cl)c(Cl)c2)CCC1=O (racemic)", "Condition met"],
  ["O=C(/C=C/c1ccc(Cl)c(Cl)c1)N1CCC(=O)N(CC(O)CN2CC[C@@H](F)[C@H](O)C2)CC1 (mixture of isomers)", "Condition not met"],
  ["O=C(/C=C/c1ccc(Cl)c(Cl)c1)N1CCC(=O)N(CCC(O)CN2CCC(CO)CC2)CC1 (racemic)", "Condition not met"],
  ["O=C(/C=C/c1ccc(Cl)c(Cl)c1)N1CCC(=O)N(CCCCN2CCC(O)C3(CC3)C2)CC1 (racemic)", "Condition met"],
  ["O=C(/C=C/c1ccc(F)c(Cl)c1)N1CCC(=O)N(CCCN2CCCC(CO)C2)CC1 (racemic)", "Condition met"],
  ["CN(CCO)CCCCN1CCN(C(=O)/C=C/c2ccc(Cl)c(Cl)c2)CCC1=O", "Condition not met"],
  ["O=C(/C=C/c1ccc(Cl)c(Cl)c1)N1CCC(=O)N(CCCN2CCC(CO)CC2)CC1", "Condition met"],
  ["C[C@@H]1C[C@H](O)CN(C[C@H](O)CCN2CCN(C(=O)/C=C/c3ccc(F)c(Cl)c3)CCC2=O)C1", "Condition met"],
  ["O=C(/C=C/c1ccc(F)c(Cl)c1)N1CCC(=O)N(CCCN2CC[C@H](CO)[C@H](O)C2)CC1 (racemic)", "Condition met"],
  ["COCC1CCCN(CCCN2CCN(C(=O)/C=C/c3ccc(Cl)c(Cl)c3)CCC2=O)C1 (racemic)", "Condition not met"],
  ["COCC1CC(OC)C(O)CN1CCCCN1CCN(C(=O)/C=C/c2ccc(Cl)c(Cl)c2)CCC1=O (racemic)", "Condition not met"],
  ["CC1CCCN(CC(O)CN2CCN(C(=O)/C=C/c3ccc(Cl)c(Cl)c3)CCC2=O)C1 (racemic)", "Condition met"],
  ["O=C(/C=C/c1ccc2ccccc2c1)N1CCC(=O)N(CCN2CCCC2)CC1", "Condition not met"],
  ["O=C(/C=C/c1cccc(Cl)c1)N1CCC(=O)N(CCN2CCC(c3c[nH]c4cc(F)ccc34)CC2)CC1", "Condition met"],
  ["O=C(/C=C/c1ccc(Cl)c(Cl)c1)N1CCC(=O)N(CCN2CCC(O)(c3cccnc3)CC2)CC1", "Condition not met"],
  ["CNC(=O)C1CCN(CCCN2CCN(C(=O)/C=C/c3ccc(Cl)c(Cl)c3)CCC2=O)CC1", "Condition not met"],
  ["COC[C@H]1CCN(C[C@H](O)CN2CCN(C(=O)/C=C/c3ccc(F)c(Cl)c3)CCC2=O)C[C@H]1O (mixture of isomers)", "Condition not met"],
  ["O=C(/C=C/c1ccc(Cl)c(Cl)c1)N1CCC(=O)N(CCCN2CCCCC2)CC1", "Condition met"],
  ["CC(C)N1CCN(CCCN2CCN(C(=O)/C=C/c3ccc(Cl)c(Cl)c3)CCC2=O)CC1", "Condition met"],
  ["O=C1NCC2(CCN(CCCN3CCN(C(=O)/C=C/c4ccc(Cl)c(Cl)c4)CCC3=O)CC2)O1", "Condition met"],
  ["O=C(/C=C/c1ccc(Cl)c(Cl)c1)N1CCC(=O)N(CC(O)CN2CCCC(CO)C2)CC1 (racemic)", "Condition met"],
  ["O=C(/C=C/c1ccc2ccccc2c1)N1CCC(=O)N(CCCN2CCCCC2)CC1", "Condition not met"],
  ["O=C(/C=C/c1ccc(Cl)c(Cl)c1)N1CCC(=O)N(C[C@@H](O)CN2CCCCC2)CC1", "Condition met"],
  ["O=C(/C=C/c1ccc(Cl)c(Cl)c1)N1CCC(=O)N(CCCN2CCC(O)(c3ccccc3)CC2)CC1", "Condition met"],
  ["Cc1nc(C2CCN(CCCN3CCN(C(=O)/C=C/c4ccc(Cl)c(Cl)c4)CCC3=O)CC2)n[nH]1", "Condition not met"],
  ["CC1(CO)CCN(CCCCN2CCN(C(=O)C=Cc3ccc(Cl)c(F)c3)CCC2=O)CC1O (stereo not drawn) [Example 411]", "Condition met"],
  ["O=C(/C=C/c1ccc(Cl)c(Cl)c1)N1CCC(=O)N(CCCN2CC[C@H](CO)[C@@H](O)C2)CC1 (racemic)", "Condition met"],
  ["CC(C)CN1CCN(CC(O)CN2CCN(C(=O)C=Cc3ccc(Cl)c(Cl)c3)CCC2=O)CC1 (racemic)", "Condition not met"]
]}
